Please find below pIC50 data on TYRO3 (Homo sapiens, UniProt Q06418) compiled from the literature.
pIC50: −log10 of the molar value.

Molecule	pIC50
COCC(C)Nc1ncc2c(N3CCOCC3=O)cc(C3CCC(O)CC3)n2n1 (stereo not drawn)	5.00 to 6.00
CC(=O)N1CCC(c2cc(-c3ccc(NC(=O)c4cccn(-c5ccccc5)c4=O)cc3F)c3c(N)ncnn23)CC1	7.00 to 8.00
COC[C@H](C)Nc1ncc2c(-c3cnn(Cc4noc(C)n4)c3)cc([C@H]3CC[C@H](O)CC3)n2n1	≥ 7.00
CO[C@H]1C[C@@H]1Nc1ncc2c(O[C@H]3C[C@@H](O)C3)ncc([C@H]3CC[C@H](O)CC3)c2n1	≥ 7.00
CC[C@@H](C)Nc1ncc2c(OC3CCN(C)CC3)ncc([C@H]3CC[C@H](O)CC3)c2n1	< 5.00
C[C@@H]1CCCN1[C@@H]1CCc2cc(-c3cnc4[nH]nc(-c5ccc(S(=O)(=O)C6CC6)cc5)c4c3)cnc2CC1	6.00 to 7.00
